The reported measurements were obtained from paper PMC7819943.

TARGET_SYSTEM: OsWRKY34 (Oryza sativa, UniProt Q0JBA9 1-250)
Sequence (Q0JBA9 entry or part of it): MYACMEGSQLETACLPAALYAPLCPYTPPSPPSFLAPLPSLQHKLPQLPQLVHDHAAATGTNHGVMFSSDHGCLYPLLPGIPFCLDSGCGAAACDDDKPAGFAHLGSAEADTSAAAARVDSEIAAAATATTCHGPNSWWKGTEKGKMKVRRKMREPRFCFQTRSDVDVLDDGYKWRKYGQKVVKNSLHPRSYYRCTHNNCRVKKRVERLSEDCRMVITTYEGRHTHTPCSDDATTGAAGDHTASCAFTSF
ASSAY_INFO: protein-binding microarray (RPBM); PBS, 2% BSA, 51.3 ng/ul salmon testes DNA, 50 uM zinc acetate, 200 nM TF, 25 C, 1 h; high values mean tight binding
CONDITION_NOTES: protein: recombinant; tags: N-terminal polyhistidine and DsRed monomer fusion (pET32a); label: CyDye5-dUTP incorporated in the synthesized complementary strand; 3' TTTTT single-stranded linker to array surface; dsDNA, one strand shown
In all, about 68,000 sequences were measured (“fluorescence intensity (a.u.)”: median about 9,100, highest 2% from about 16,000 on). This excerpt belongs to a sample that is enriched for the highest values.
# maps each entry to its binding signal
VALUE_TYPE: binding signal

>>> result("GCGCCGTCCCTTCGGGCCCACAAGCCGTCCACCCACTTCCCGGAGTCACCTAGTGCAG")
"11300 fluorescence intensity (a.u.)"
>>> result("CGGGCGGATGAGGGGCGGCGATGGGCGGGCAAGGGGCGTGCGGAGTCACCTAGTGCAG")
"12500 fluorescence intensity (a.u.)"
>>> result("CTTTTTAATCAACGTTTGACCATTCGTCTTATTCAATTTTCGGAGTCACCTAGTGCAG")
"10900 fluorescence intensity (a.u.)"
>>> result("GGGCAAGGGGAGCGGATGGGCGGGGAGGAGGCAGGCTGCGCGGAGTCACCTAGTGCAG")
"11600 fluorescence intensity (a.u.)"
>>> result("AATATTTTTTTTTACTGTTTTCACTTTGACCATTAATATTCGGAGTCACCTAGTGCAG")
"9790 fluorescence intensity (a.u.)"
>>> result("TGCCGCTGCCGCCGTGTGCCCGAGCGAGCCCACGCCCACACGGAGTCACCTAGTGCAG")
"8340 fluorescence intensity (a.u.)"
>>> result("GCAACGGGGAGGTGGGCGGAGGTGCGGCGCGGCGGCGGGCCGGAGTCACCTAGTGCAG")
"10300 fluorescence intensity (a.u.)"
>>> result("TGTGTCATCTTGTCTATGGTAGTTCAGCAATCCTCTGCTTCGGAGTCACCTAGTGCAG")
"8890 fluorescence intensity (a.u.)"
>>> result("GTCGAGGCGGCGGCGGCGGGGCGCGGAGTGAGGTGGGTGCCGGAGTCACCTAGTGCAG")
"8640 fluorescence intensity (a.u.)"
>>> result("CGTTGACTTTTTAGTACATGTTTGACCATTCGTCTTATTCCGGAGTCACCTAGTGCAG")
"36100 fluorescence intensity (a.u.)"
>>> result("GCTGTTGACTTTCGACCTACGTTTGACCATTCGTTTTATTCGGAGTCACCTAGTGCAG")
"20600 fluorescence intensity (a.u.)"
>>> result("TCACTTTTTTTTCCATTCATTGTATGATTTCTTCTATTATCGGAGTCACCTAGTGCAG")
"10900 fluorescence intensity (a.u.)"
>>> result("CAGAGCAGGGGAGGGGAGGGGAGGGGATCCTGGTGAGCCTCGGAGTCACCTAGTGCAG")
"17600 fluorescence intensity (a.u.)"
>>> result("TGCCTAACAATTCTTTTTATTCGCGACGTCAATATACTACCGGAGTCACCTAGTGCAG")
"9730 fluorescence intensity (a.u.)"
>>> result("ACACCGTTGACTTTTTAGTACGTATTTGACCATTCGTCTTCGGAGTCACCTAGTGCAG")
"36700 fluorescence intensity (a.u.)"
>>> result("TCATTCATATTATTTATTATTTAGTTGTTTGACTTTTTTTCGGAGTCACCTAGTGCAG")
"9600 fluorescence intensity (a.u.)"
>>> result("GGTTAGAGATACATACATATTATACCTGATTCACCTCACTCGGAGTCACCTAGTGCAG")
"8060 fluorescence intensity (a.u.)"
>>> result("GCATGTGTTCGTTATGTGTGGTTGGAGATTTTCTCCCACACGGAGTCACCTAGTGCAG")
"8470 fluorescence intensity (a.u.)"
>>> result("CTCCTCGCCTTCTTCTCCATCTCCATCTCGCATCTTCTCTCGGAGTCACCTAGTGCAG")
"11400 fluorescence intensity (a.u.)"

====

# maps each entry to its binding signal
TARGET_SYSTEM: OsWRKY34 (Oryza sativa, UniProt Q0JBA9 1-250)
ASSAY_INFO: protein-binding microarray (RPBM); PBS, 2% BSA, 51.3 ng/ul salmon testes DNA, 50 uM zinc acetate, 200 nM TF, 25 C, 1 h; high values mean tight binding
CONDITION_NOTES: protein: recombinant; tags: N-terminal polyhistidine and DsRed monomer fusion (pET32a); label: CyDye5-dUTP incorporated in the synthesized complementary strand; 3' TTTTT single-stranded linker to array surface; dsDNA, one strand shown
Whole data set: some 68,000 sequences, median “fluorescence intensity (a.u.)” near 9,100, cut for the highest 2% near 16,000. Only a selection was taken, and the highest values are over-represented in it overall.
VALUE_TYPE: binding signal

>>> result("TTTGTGTGTCTTGTTTATATGTGCACATATCTTGTCTTGTCGGAGTCACCTAGTGCAG")
"8370 fluorescence intensity (a.u.)"
>>> result("TTTTTTTATTTTTTTTGAAATATTTTTTGTTGGGTTTTTTCGGAGTCACCTAGTGCAG")
"13100 fluorescence intensity (a.u.)"
>>> result("TTTTTTACCATGGGTCTTGCATTGAATTTTTCTTTTTTTTCGGAGTCACCTAGTGCAG")
"9890 fluorescence intensity (a.u.)"
>>> result("ATCCTCATATCGTGTATCCGTATTCGTATCCCCGTATTTGCGGAGTCACCTAGTGCAG")
"8230 fluorescence intensity (a.u.)"
>>> result("GATTTTTAGTGAATATAATGAAATTTCACAGGGGAGGGGCCGGAGTCACCTAGTGCAG")
"13400 fluorescence intensity (a.u.)"
>>> result("TTCCGGCCCGCGTTCTTTTTGAAGTCCAGTTTACGTCCTTCGGAGTCACCTAGTGCAG")
"10800 fluorescence intensity (a.u.)"
>>> result("TCATCCGCACCAACACCATTAGTTATATTACCCACACATCCGGAGTCACCTAGTGCAG")
"8520 fluorescence intensity (a.u.)"
>>> result("ATATTTGGTTTTTTTTCGTACTTTTTTTCGCCCGGTTTTTCGGAGTCACCTAGTGCAG")
"20800 fluorescence intensity (a.u.)"
>>> result("GATGTTGTTTCCTTTCTTTGGTGGTTTGGTTTGGTTGGGTCGGAGTCACCTAGTGCAG")
"29300 fluorescence intensity (a.u.)"
>>> result("GGACCTACTTTCGCGATTTTCCCCGGTTGGCCACTACTTTCGGAGTCACCTAGTGCAG")
"18800 fluorescence intensity (a.u.)"
>>> result("AGATTTGGTTTTTTAGGCCGGTTTTTCGTTTTGTCGCCCTCGGAGTCACCTAGTGCAG")
"8750 fluorescence intensity (a.u.)"
>>> result("TCCACCCATCGTTCTCATGACCTGCCAACCCCATCCCAGCCGGAGTCACCTAGTGCAG")
"10000 fluorescence intensity (a.u.)"
>>> result("CCGTTTCCTTTGCTGGTTGTGTTTTGTGCTTGCATTCATGCGGAGTCACCTAGTGCAG")
"12400 fluorescence intensity (a.u.)"
>>> result("CTCTCTCCACCCTCAGCCGCCACACTCCCATCCATTCTCCCGGAGTCACCTAGTGCAG")
"9060 fluorescence intensity (a.u.)"
>>> result("GCCTTTTTAACTTGTGCGACCGGTGTTCCGGGATTTTGGGCGGAGTCACCTAGTGCAG")
"10900 fluorescence intensity (a.u.)"
>>> result("ACTGCCCTTATCATTTCCGATTCCGTTTCCGAGAAAATATCGGAGTCACCTAGTGCAG")
"9240 fluorescence intensity (a.u.)"
>>> result("CGTTCTCTCTCTCCTAGAACCACAGTTCAACCACTGTTTCCGGAGTCACCTAGTGCAG")
"8580 fluorescence intensity (a.u.)"
>>> result("GAAGAGGAGGAGGAGGAGGAGGAGGAGGAGGGGATCAATGCGGAGTCACCTAGTGCAG")
"8350 fluorescence intensity (a.u.)"
>>> result("TAGATGAAATGGGTTGGGTTGATTTGGGTTGAAATATGATCGGAGTCACCTAGTGCAG")
"21800 fluorescence intensity (a.u.)"
>>> result("GAGCATCACAAGTCGCGACCTCACAGGGAGGGGCGGCGGCCGGAGTCACCTAGTGCAG")
"9060 fluorescence intensity (a.u.)"
>>> result("CACAGGGCATGAATTGATGAATAGGATGGCCATTTTTTTTCGGAGTCACCTAGTGCAG")
"65000 fluorescence intensity (a.u.)"
>>> result("TTCGTTTCTGGCTTTTTCGTCGTGTTCCGATTTCAATCTCCGGAGTCACCTAGTGCAG")
"12700 fluorescence intensity (a.u.)"
>>> result("TATATATATTTATCACCGGTTTATTTTGGTCTGGTCTTTTCGGAGTCACCTAGTGCAG")
"13000 fluorescence intensity (a.u.)"
>>> result("GATTTTTAGTGAATATAATGAAATTTCATAGGGGAGGGGCCGGAGTCACCTAGTGCAG")
"8930 fluorescence intensity (a.u.)"
>>> result("CGGGCGGGTCAAGGTCTCCTCCTCTCTCGTCGGCGACCTCCGGAGTCACCTAGTGCAG")
"10900 fluorescence intensity (a.u.)"
>>> result("CTTGTTGATGTGGGTGTTTCTTGGTCGATCCTTCTTGTTTCGGAGTCACCTAGTGCAG")
"8330 fluorescence intensity (a.u.)"
>>> result("TTAACCACAGTGCCGTTCTCTAGCCACCATCTCAGCAGCACGGAGTCACCTAGTGCAG")
"8220 fluorescence intensity (a.u.)"
>>> result("TCCACCCATCCTCATCATTATCCTCTCTCTCCTCTCTCACCGGAGTCACCTAGTGCAG")
"9640 fluorescence intensity (a.u.)"
>>> result("CCAAGGGTGGGGCCTCTCGTCGTCTCGTCTCCTCTCGTCTCGGAGTCACCTAGTGCAG")
"20400 fluorescence intensity (a.u.)"
>>> result("GTTCTCTTTTTTGTTTGTCTTTCCTAGTGCAATATGTTTCCGGAGTCACCTAGTGCAG")
"10700 fluorescence intensity (a.u.)"
>>> result("TATTCCTTTCATTGGGTTTGTGCGGGATGGCTGGTTGGTGCGGAGTCACCTAGTGCAG")
"18100 fluorescence intensity (a.u.)"
>>> result("CAGTTGGCCTGTTTGTTTGTTGGTTGTGATTAATCTGTGACGGAGTCACCTAGTGCAG")
"18800 fluorescence intensity (a.u.)"
>>> result("AGTCCATCTAATTCGGCTGCACTCTTTTTCCCCTGTGAAGCGGAGTCACCTAGTGCAG")
"8530 fluorescence intensity (a.u.)"
>>> result("TGATTTATGAATTATGATTACTAATACTGTTTTTTGTCCTCGGAGTCACCTAGTGCAG")
"8780 fluorescence intensity (a.u.)"
>>> result("GGGCGCCGGTATGCTTCTTCCATTCCACCTATGTGTTTCTCGGAGTCACCTAGTGCAG")
"9490 fluorescence intensity (a.u.)"
>>> result("AATAGGGCATGAACCCCAGCCATTTCTCCTCATCCCACACCGGAGTCACCTAGTGCAG")
"63200 fluorescence intensity (a.u.)"
>>> result("GGTCTGGTTTTATCGGTTTATATGTGTGTGTTTTTTTTGTCGGAGTCACCTAGTGCAG")
"33500 fluorescence intensity (a.u.)"
